Biological target: α4β7 integrin interaction with MadCAM-1 (RPMI8866 cells) (Homo sapiens, UniProt P13612+P26010)
Construct: α4β7 integrin expressing cells; endogenous in cells
Sequence (P13612 34-1032): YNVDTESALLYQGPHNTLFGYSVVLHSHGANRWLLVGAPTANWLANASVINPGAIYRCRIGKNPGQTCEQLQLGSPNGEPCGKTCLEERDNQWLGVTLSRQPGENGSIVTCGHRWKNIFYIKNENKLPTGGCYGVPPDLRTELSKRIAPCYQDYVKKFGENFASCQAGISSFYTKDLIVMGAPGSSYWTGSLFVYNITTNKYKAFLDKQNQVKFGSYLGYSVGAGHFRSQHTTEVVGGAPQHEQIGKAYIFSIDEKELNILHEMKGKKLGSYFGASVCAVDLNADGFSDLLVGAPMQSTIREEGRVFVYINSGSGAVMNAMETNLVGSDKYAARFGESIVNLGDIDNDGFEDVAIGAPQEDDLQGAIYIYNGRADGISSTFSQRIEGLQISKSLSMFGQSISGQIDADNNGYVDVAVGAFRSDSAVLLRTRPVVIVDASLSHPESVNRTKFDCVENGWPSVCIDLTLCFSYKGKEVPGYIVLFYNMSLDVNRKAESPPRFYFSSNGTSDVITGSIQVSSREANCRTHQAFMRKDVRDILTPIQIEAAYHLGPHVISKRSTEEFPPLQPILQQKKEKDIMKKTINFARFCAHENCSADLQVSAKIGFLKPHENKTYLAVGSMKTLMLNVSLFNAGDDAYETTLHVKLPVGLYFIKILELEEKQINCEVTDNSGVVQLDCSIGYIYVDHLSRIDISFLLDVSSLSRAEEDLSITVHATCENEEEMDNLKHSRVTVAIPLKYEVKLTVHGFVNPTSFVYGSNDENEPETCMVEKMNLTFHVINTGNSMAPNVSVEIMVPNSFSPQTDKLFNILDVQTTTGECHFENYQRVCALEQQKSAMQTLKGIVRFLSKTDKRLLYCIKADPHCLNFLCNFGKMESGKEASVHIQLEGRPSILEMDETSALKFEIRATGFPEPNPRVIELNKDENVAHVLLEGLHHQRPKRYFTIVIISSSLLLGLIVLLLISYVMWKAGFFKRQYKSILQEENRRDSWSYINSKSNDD
Sequence (P26010 20-798): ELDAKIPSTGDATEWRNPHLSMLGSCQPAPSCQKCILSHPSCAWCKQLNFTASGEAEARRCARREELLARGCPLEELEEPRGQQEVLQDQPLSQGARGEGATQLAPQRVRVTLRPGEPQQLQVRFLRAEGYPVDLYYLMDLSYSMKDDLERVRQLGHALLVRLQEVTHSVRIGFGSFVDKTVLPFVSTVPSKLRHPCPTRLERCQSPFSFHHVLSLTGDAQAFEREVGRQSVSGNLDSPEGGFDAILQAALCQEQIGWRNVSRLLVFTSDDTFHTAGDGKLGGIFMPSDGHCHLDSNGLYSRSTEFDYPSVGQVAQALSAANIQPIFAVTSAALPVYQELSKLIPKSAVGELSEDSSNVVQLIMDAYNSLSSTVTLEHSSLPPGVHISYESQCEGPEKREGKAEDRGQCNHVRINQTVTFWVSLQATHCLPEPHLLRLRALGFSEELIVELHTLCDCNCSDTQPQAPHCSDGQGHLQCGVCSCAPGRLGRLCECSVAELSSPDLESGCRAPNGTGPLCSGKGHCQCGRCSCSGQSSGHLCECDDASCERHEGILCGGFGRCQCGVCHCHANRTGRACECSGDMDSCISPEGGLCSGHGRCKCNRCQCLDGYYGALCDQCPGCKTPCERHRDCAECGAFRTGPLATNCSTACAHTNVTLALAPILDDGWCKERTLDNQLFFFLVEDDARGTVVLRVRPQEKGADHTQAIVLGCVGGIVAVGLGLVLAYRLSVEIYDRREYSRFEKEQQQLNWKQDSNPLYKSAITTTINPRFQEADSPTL
Assay: α4β7 Integrin Cell Capture Assay
Details: capture of α4β7 integrin expressing RPMI8866 cells on recombinant MadCAM-1 extracellular domain-coated plate; 0.5 mM MnCl2
Record form. Attribute: EC50. Fill in for each entry.
Quick note: give the figure in nM, leave out the unit.

Inquiry: Quick one: give measured EC50 for "CCOCc1cc(OC)c(-c2ccc(C[C@H](NC(=O)c3c(F)cc(NS(=O)(=O)c4ccc(-c5ccnc(F)c5)cc4)cc3F)C(=O)O)c3c2CCCO3)c(OC)c1"
Reply text: 1.67

Inquiry: Quick one: give measured EC50 for "Cc1cc(N2CCOC[C@@H]2C(F)(F)F)cc(F)c1C(=O)N[C@@H](Cc1ccc(-c2cc(C)c(C)n(C)c2=O)c2c1CCCO2)C(=O)O"
Reply text: 0.358

Inquiry: Quick one: give measured EC50 for "COc1cc2ccccc2cc1-c1ccc(C[C@H](NC(=O)c2c(F)cccc2F)C(=O)O)c2c1OCCO2"
Reply text: 29.3

Inquiry: Quick one: give measured EC50 for "Cc1cc(N2CCOC3(CC3)C2)cc(F)c1C(=O)N[C@@H](Cc1ccc(-c2nc(C)c(C)n(C)c2=O)c2c1CCCO2)C(=O)O"
Reply text: 2

Inquiry: Quick one: give measured EC50 for "Cc1cc(C)n(C)c(=O)c1-c1ccc(C[C@H](NC(=O)c2c(F)cc(N3CCOC[C@@H]3C(F)(F)F)cc2F)C(=O)O)c2c1OCCC2"
Reply text: 0.364

Inquiry: Quick one: give measured EC50 for Cc1c(-c2ccc(C[C@H](NC(=O)c3c(F)cccc3F)C(=O)O)c3c2OCCC3)c(=O)n(C)c2ccccc12 (single isomer, unassigned) [Example 58]
Reply text: 2.56

---

Target: α4β7 integrin interaction with MadCAM-1 (RPMI8866 cells) (Homo sapiens, UniProt P13612+P26010)
Construct: α4β7 integrin expressing cells; endogenous in cells
Experiment: α4β7 Integrin Cell Capture Assay
Conditions: capture of α4β7 integrin expressing RPMI8866 cells on recombinant MadCAM-1 extracellular domain-coated plate; 0.5 mM MnCl2
outcome.measure: EC50 (nM)
Quick note: give the figure in nM, leave out the unit.

Inquiry: Quick one: give measured EC50 for "Cc1cn(C)c(=O)c(-c2ccc(C[C@H](NC(=O)c3c(C)cc(N4CCOC[C@@H]4C(F)(F)F)cc3F)C(=O)O)c3c2OCCC3)n1"
Reply text: 0.731

Inquiry: Quick one: give measured EC50 for "CN1CCCc2c(C[C@H](NC(=O)c3c(F)cccc3F)C(=O)O)ccc(-c3c(Cl)cc(F)cc3Cl)c21"
Reply text: 267

Inquiry: Quick one: give measured EC50 for "Cn1c(=O)c(-c2ccc(C[C@H](NC(=O)c3c(F)cc(N4CCOC[C@@H]4C(F)(F)F)cc3F)C(=O)O)c3c2COC3)cc2ccccc21"
Reply text: 1.04

Inquiry: Quick one: give measured EC50 for "Cc1cccc(F)c1C(=O)N[C@@H](Cc1ccc(-c2nc(C)c(C)n(C)c2=O)c2c1OCCO2)C(=O)O"
Reply text: 4.34

Inquiry: Quick one: give measured EC50 for "Cc1nc(-c2ccc(C[C@@H](C(=O)O)N(C)C(=O)c3c(F)cc(N4CCOC[C@@H]4C(F)(F)F)cc3F)c3c2OCCC3)c(=O)n(C)c1C"
Reply text: 94.9

Inquiry: Quick one: give measured EC50 for "CS(=O)(=O)Nc1cc(F)c(C(=O)N[C@@H](Cc2ccc(-c3c(Cl)cc(F)cc3Cl)c3c2CCCO3)C(=O)O)c(F)c1"
Reply text: 9.19

---

Target: α4β7 integrin interaction with MadCAM-1 (RPMI8866 cells) (Homo sapiens, UniProt P13612+P26010)
Construct: α4β7 integrin expressing cells; endogenous in cells
Test: α4β7 Integrin Cell Capture Assay
Conditions: capture of α4β7 integrin expressing RPMI8866 cells on recombinant MadCAM-1 extracellular domain-coated plate; 0.5 mM MnCl2
outcome.measure: EC50 (nM)
Quick note: give the figure in nM, leave out the unit.

Inquiry: Quick one: give measured EC50 for "CCc1nc(-c2ccc(C[C@H](NC(=O)c3c(F)cc(N4CCOC[C@@H]4C(F)(F)F)cc3F)C(=O)O)c3c2OCCC3)c(=O)n(C)c1CC"
Reply text: 0.482

Inquiry: Quick one: give measured EC50 for "Cc1c(-c2ccc(C[C@H](NC(=O)c3c(F)cccc3F)C(=O)O)c3c2CCC3)c(=O)n(C)c2ccc(F)cc12"
Reply text: 2.44

Inquiry: Quick one: give measured EC50 for "C[C@@H](Nc1cc(F)c(C(=O)N[C@@H](Cc2ccc(-c3ncccc3C(F)(F)F)c3c2CCCO3)C(=O)O)c(F)c1)C(F)(F)F"
Reply text: 8.47

Inquiry: Quick one: give measured EC50 for "Cc1cc(-c2ccc(C[C@H](NC(=O)c3c(F)cc(N4CCOC[C@@H]4C(F)(F)F)cc3F)C(=O)O)c3c2OCCC3)c(=O)n(C)c1C"
Reply text: 0.78

Inquiry: Quick one: give measured EC50 for "Cn1c(=O)n(-c2ccc(C[C@H](NC(=O)c3c(F)cc(N4CCOC[C@@H]4C(F)(F)F)cc3F)C(=O)O)c3c2OCCC3)c(=O)c2ccncc21"
Reply text: 0.065

Inquiry: Quick one: give measured EC50 for "O=C(N[C@@H](Cc1ccc(-c2c(Cl)cc(F)cc2Cl)c2c1CCCO2)C(=O)O)c1c(F)cc(N[C@H](c2ccccc2)C(F)(F)F)cc1F"
Reply text: 64
